This collection of values is drawn from patent US20030175680A1.

molecular target: UniProtKB P12530
Sequence (P12530 whole entry): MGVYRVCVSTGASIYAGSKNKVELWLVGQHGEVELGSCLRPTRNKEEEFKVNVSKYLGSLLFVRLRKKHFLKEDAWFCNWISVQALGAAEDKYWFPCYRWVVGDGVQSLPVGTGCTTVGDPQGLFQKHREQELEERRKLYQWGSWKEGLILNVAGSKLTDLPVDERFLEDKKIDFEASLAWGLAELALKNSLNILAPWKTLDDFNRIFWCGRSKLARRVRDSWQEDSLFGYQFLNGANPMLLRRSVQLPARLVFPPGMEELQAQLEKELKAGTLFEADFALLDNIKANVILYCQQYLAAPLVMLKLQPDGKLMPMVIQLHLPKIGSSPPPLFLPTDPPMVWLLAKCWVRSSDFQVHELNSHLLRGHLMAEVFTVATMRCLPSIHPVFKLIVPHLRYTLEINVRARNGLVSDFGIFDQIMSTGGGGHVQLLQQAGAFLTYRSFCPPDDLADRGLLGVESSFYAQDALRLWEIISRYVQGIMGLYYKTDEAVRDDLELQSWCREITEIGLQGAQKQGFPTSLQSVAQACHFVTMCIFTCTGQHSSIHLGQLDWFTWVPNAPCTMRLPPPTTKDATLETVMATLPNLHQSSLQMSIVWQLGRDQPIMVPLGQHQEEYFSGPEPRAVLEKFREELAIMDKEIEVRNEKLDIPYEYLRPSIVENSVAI
pIC50: −log10 of the molar value.
The entries below come with measured pIC50 values attached.

Query: Would you kindly share the measured pIC50 for COc1ccc(-c2cc3cc(F)c(F)cc3[nH]2)cc1NS(=O)(=O)NC(=O)OCC(C)C [Compound 6] ?
Reply: 7.08 to 7.60

Query: Now give it for CCCCCCC#Cc1ccccc1/C=C/C(=O)O [Compound 4] too.
Reply: 5.52 to 6.00

New cases:
Query: Which pIC50 is reported for this molecule? COc1ccc(C(=O)Nc2ccc(Cl)c(Cl)c2)cc1N [Compound 3]
Reply: ~8.00
